PROCEDURE_DETAILS: ART drug monitoring in breast milk (HPLC-UV)
Type: in vivo, human
SETUP_CONDITIONS: human one, oral, read-out: ART level in breast milk (BM)
REPORTED_ENDPOINT: concentration at 6 months (infant age)

Query `Cc1cc(/C=C/C#N)cc(C)c1Nc1ccnc(Nc2ccc(C#N)cc2)n1` yields concentration at 6 months (infant age) of < 50 ng/mL

Query `CC(C)CN(C[C@@H](O)[C@H](Cc1ccccc1)NC(=O)O[C@H]1CO[C@H]2OCC[C@H]21)S(=O)(=O)c1ccc(N)cc1` yields concentration at 6 months (infant age) of < 250 ng/mL

Query `C[C@@H]1CCO[C@H]2Cn3cc(C(=O)NCc4ccc(F)cc4F)c(=O)c(O)c3C(=O)N12` yields concentration at 6 months (infant age) of 680 ng/mL
